Source: patent US8653263B2

Attribute: pKi
# tgt: human orexin-2 receptor (Homo sapiens (Human), UniProt O43614)
# Sequence (O43614 whole entry): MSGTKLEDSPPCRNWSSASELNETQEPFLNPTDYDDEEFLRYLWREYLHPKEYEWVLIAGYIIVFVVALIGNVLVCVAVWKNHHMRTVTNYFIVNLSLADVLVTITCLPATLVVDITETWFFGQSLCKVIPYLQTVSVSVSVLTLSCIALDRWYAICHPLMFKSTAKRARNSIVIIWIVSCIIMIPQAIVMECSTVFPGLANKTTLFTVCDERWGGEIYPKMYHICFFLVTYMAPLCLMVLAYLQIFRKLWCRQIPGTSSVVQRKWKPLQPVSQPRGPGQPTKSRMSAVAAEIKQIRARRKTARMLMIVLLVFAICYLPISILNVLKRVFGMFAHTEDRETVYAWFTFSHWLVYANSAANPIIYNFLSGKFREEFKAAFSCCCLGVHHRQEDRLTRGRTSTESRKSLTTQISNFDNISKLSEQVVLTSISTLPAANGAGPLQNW
# test-method-notes: Human orexin 2 receptor radioligand binding ([3H]-EMPA competition)
# setup-conditions: HEK293 cells stably expressing human orexin-2 receptor; [3H]-EMPA 5 nM final; apparent Ki=IC50/(1+C/Kd), Kd=2 nM; read-out: OR 2 Ki
pKi: −log10 of the molar value.
measured-metric: pKi

1) Cc1cc(C)nc(N2CC3CN(C(=O)c4nc(C)sc4-c4ccc(F)cc4)CC3C2)n1 (stereo not drawn) [Example 254]
5.66
2) COc1cccc(OC)c1C(=O)N1CC2CN(c3nc4ccccc4o3)CC2C1 (stereo not drawn) [Example 192]
5.99
3) Cc1cc(C)nc(N2CC3CN(C(=O)c4ccccc4-c4ncn(C)n4)CC3C2)n1 (stereo not drawn) [Example 308]
7.59
4) O=C(c1cc(F)ccc1-c1ncccn1)N1CC2CN(c3nccc(-c4ccccc4)n3)CC2C1 (stereo not drawn) [Example 113]
7.30
5) Cc1ccnc(N2CC3CN(C(=O)c4ccccc4-c4nnc[nH]4)CC3C2)n1 (stereo not drawn) [Example 87]
6.29
6) Cc1nccc(N2CC3CN(C(=O)c4ccccc4-n4nccn4)CC3C2)n1 (stereo not drawn) [Example 210]
5.52

====

# tgt: human orexin-2 receptor (Homo sapiens (Human), UniProt O43614)
# test-method-notes: Human orexin 2 receptor radioligand binding ([3H]-EMPA competition)
# setup-conditions: HEK293 cells stably expressing human orexin-2 receptor; [3H]-EMPA 5 nM final; apparent Ki=IC50/(1+C/Kd), Kd=2 nM; read-out: OR 2 Ki
Values of Ki strictly less than 4 µM map to 1, and values of at least 4 µM map to 0.

1) O=C(c1ccccc1-c1cccnc1)N1CC2CN(c3cnc4ccccc4n3)CC2C1 (centres unmarked)
1
2) Cc1cc(C)nc(N2CC3CN(C(=O)c4ccccc4-c4cccc(F)c4)CC3C2)n1 (centres unmarked)
1
3) Cc1cc(C)nc(N2CC3CN(C(=O)c4ccccc4C#N)CC3C2)n1 (centres unmarked)
0
4) Cc1cc(C)nc(N2CC3CN(C(=O)c4cccc(F)c4-c4ccccn4)CC3C2)n1 (centres unmarked)
1
5) COc1ccc(C(=O)N2CC3CN(c4nc5ccc(C)cc5s4)CC3C2)c(OC)c1 (centres unmarked)
1

====

# tgt: human orexin-2 receptor (Homo sapiens (Human))
# test-method-notes: Human orexin 2 receptor radioligand binding ([3H]-EMPA competition)
# setup-conditions: HEK293 cells stably expressing human orexin-2 receptor; [3H]-EMPA 5 nM final; apparent Ki=IC50/(1+C/Kd), Kd=2 nM; read-out: OR 2 Ki
pKi: −log10 of the molar value.
Attribute: pKi
measured-metric: pKi

1. O=C(c1ccccc1-c1cccs1)N1CC2CN(c3nc4ccccc4o3)CC2C1 (stereo not shown)
7.20
2. CCOc1ccc2ccccc2c1C(=O)N1CC2CN(c3nccc(OC)n3)CC2C1 (stereo not shown)
7.10
3. O=C(c1ccccc1-n1nccn1)N1CC2CN(c3nccc(C(F)(F)F)n3)CC2C1 (stereo not shown)
7.12
4. Cc1nc(N2CC3CN(C(=O)c4ccccc4-c4ncn(C)n4)CC3C2)ncc1F (stereo not shown)
7.10
5. COc1cc(N2CC3CN(C(=O)c4cc(F)ccc4-n4nccn4)CC3C2)nc(N(C)C)n1 (stereo not shown)
7.19
6. CCOc1ccccc1C(=O)N1CC2CN(c3nc(C)cc(C)n3)CC2C1 (stereo not shown)
7.12
7. O=C(c1ccccc1-n1nccn1)N1CC2CN(c3ccc(F)cn3)CC2C1 (stereo not shown)
6.90
